TARGET_DESC: T1, full length human tau protein 2N4R (hT40) (human, UniProt P10636 1-758)
T1 construct: recombinant; also called T441
ASSAY_DETAILS: SPR, summary table
EXPERIMENTAL_READOUT: pKd
Give bare numbers, as −log10 of the molar value.

BINDER: S1D12 scAb (scFv, not shown: small tags and cut ends, scAb) scFv: QVQLQESGPSLVKPSQTLSLTCTVSGFSLNNNAVGWVRQAPGKVPESLVGCSSDGTCYYNSALKSRLDITRDTSKNQISLSLSSVTTDDAAVYYCTRGHYSIYGYDYLGTIDYWGPGLLVTVSSEGKSSGASGESKVDDQAVLTQPSSVSGSLGQRVSITCSGSSSNVGGGNSVGWYQHLPGSGLKTIIYDTNSRPSGVPDRFSGSRSGNTATLTINSLQAEDEGDYYCVTGDSTTHDDLVGSGTRLTVLG
READOUT_VALUE: 9.91

Attention now shifts to the item below.
Request: Give the reported value of pKd for this record: NS2A1 scAb (scFv, not shown: small tags and cut ends, scAb) scFv: QVQLQESGPSLVKPSQTLSLTCTVSGFSLSTNSVGWVRQAPGKAPEWVAGIDTDGEEGFNPVLKSRLSITRDTSKSQVSLSLSNVTSEDTAVYYCGRSYRTDGLAYGYVQAIDYWGPGLLVTISSEGKSSGASGESKVDDQSVLTQPSSVSGSPGQTVSITCSGSYIGSSGVGWFQQLPGSGLRTIIVASDGRPSGVPDGFSMSKSGNTATLTISSLQAEDEADYFCGSSDRTQYTGLFGSGTRLTVLG
Result: 8.54
